assay: Esomeprazole; assay type: in vivo, human; settings: human, plasma, oral, 600 mg, Cmax, Geometric LS mean, ANOVA; pexidartinib alone

{"smilesString": "FC(F)(F)c1ccc(CNc2ccc(Cc3c[nH]c4ncc(Cl)cc34)cn2)cn1", "unitSpec": "ng/mL", "Cmax": 6430}

---

experiment: Esomeprazole; assay type: in vivo, human; conditions: human, plasma, oral, AUC∞, Geometric LS mean, ANOVA; pexidartinib + esomeprazole
endpoint: AUC(0-inf)

{"molecule": "FC(F)(F)c1ccc(CNc2ccc(Cc3c[nH]c4ncc(Cl)cc34)cn2)cn1 [Pexidartinib]", "dataValue": "55400 ng·h/mL"}

---

target: CYP3A4 (Homo sapiens, UniProt P08684); assay: In vitro mechanism-based inactivation of CYP3A4; type: biochemical
Sequence (P08684 whole entry): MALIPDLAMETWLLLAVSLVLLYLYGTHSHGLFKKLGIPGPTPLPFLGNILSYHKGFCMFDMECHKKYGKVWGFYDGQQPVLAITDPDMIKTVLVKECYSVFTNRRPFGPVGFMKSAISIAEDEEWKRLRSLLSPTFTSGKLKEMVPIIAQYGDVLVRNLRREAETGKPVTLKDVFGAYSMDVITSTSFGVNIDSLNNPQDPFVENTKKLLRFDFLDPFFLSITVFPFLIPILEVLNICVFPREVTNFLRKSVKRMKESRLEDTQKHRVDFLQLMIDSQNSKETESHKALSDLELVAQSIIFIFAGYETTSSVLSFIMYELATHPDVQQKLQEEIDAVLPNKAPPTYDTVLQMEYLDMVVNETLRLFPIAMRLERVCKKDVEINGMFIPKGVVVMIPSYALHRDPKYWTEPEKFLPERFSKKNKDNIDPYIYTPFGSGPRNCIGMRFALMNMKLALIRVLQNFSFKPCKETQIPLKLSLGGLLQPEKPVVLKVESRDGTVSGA

{"smilesString": "FC(F)(F)c1ccc(CNc2ccc(Cc3c[nH]c4ncc(Cl)cc34)cn2)cn1", "kinact, s⁻¹": 0.000377}
